Assay: qHTS for Inhibitors of human tyrosyl-DNA phosphodiesterase 1 (TDP1): qHTS in cells in absence of CPT; note: nearly all actives have a fitted effect of over 55% in size
Details: DT40 Tdp1-/- hTDP1 cells, no CPT, ATP luminescence, 48 h
Description: Human tyrosyl-DNA phosphodiesterase 1 (TDP1) is a novel repair gene, and we propose to use it as a new target for anticancer drug development. […] For the primary screen, Tdp1-/-;hTDP1 cells will be exposed to small molecules in the presence or absence of CPT, and their growth kinetics will be evaluated after 48 hours by measuring ATP activity. […] The hit compounds will then be evaluated in the presence or absence of CPT using Tdp1-/- cells. […]
Screen size: about 420,000 compounds; about 64,000 (15%) were called active. Roughly 27% stayed inconclusive and do not appear here. Calls come from the whole dose curve; as a rule, active = well fitted inhibition curve with a large enough effect; inconclusive = small, poorly fitted or top-dose-only effect; inactive = flat fitted curve, though single readings scatter. Only a sample is shown.
Outcomes: T = active, F = inactive

Molecule | Label Class
C=CCn1c(-c2ccc(Cl)cc2)ccc(C#N)c1=O | F
O=S(=O)(NN=C1CCCCCCC1)c1ccc(Br)cc1 | F
Cc1ccnc2nc(C(=O)OCC(=O)N(CC(C)C)CC(C)C)nn12 | F
O=C(NCc1ccccc1Cl)C1CCCN1S(=O)(=O)c1ccc(F)cc1 (stereo not given) | F
O=c1c(-c2ccc(F)c(F)c2)nc2cncnc2n1-c1ccccc1 | F
CSc1ncnc2c1ncn2CCCNCc1cccs1 | F
Cc1ccc(S(=O)(=O)Nc2nc(C)cc(-n3nc(C)cc3C)n2)cc1 | F
CC(C)CCNC(=O)CCNS(=O)(=O)c1ccc(Cl)cc1 | F
O=C(Nc1ccc2c(c1)OCO2)c1ccc(N2C(=O)c3ccccc3C2=O)cc1 | F
N#Cc1c(C(F)(F)F)cc(-c2ccccc2)nc1SCC(=O)N1CCOCC1 | F
CC(C)c1nnc(NC(=O)C2CCCN2S(=O)(=O)c2ccc(Cl)cc2)s1 (stereo not given) | F
CCCCN1CC(COCc2ccccc2)OCCS1(=O)=O (stereo not given) | F
O=C(NC1CCN(Cc2ccccc2)CC1)c1ccccc1F | F
COc1ccccc1NC(=O)C1CCCN1S(=O)(=O)c1ccc(Cl)cc1 (stereo not given) | T
CC1CCCCC1NC(=O)c1cc(=O)[nH]c2ccccc12 (stereo not given) | F
Cc1ccsc1-c1nc(CSCC(=O)NCCN2CCCC2)c(C)o1 | F
O=C1CSC2=NCN(c3ccccc3)CN12 | F
CCOc1cc2[nH]c(=S)n(CCN3CCCCC3C)c(=O)c2cc1OCC (stereo not given) | F
COc1cccc(NC(=O)CN(C)C(=O)CSC(=S)N2CCCC2)c1 | F
CCOC(=O)c1sc(NC(=O)/C=C/c2ccc(C(C)C)cc2)c(C(=O)OCC)c1C | F
O=C(COc1ccc([N+](=O)[O-])cc1Cl)Nn1cnnc1 | F
C=CCN(N=Nc1cccc([N+](=O)[O-])c1)c1cccc([N+](=O)[O-])c1 | F
O=S(=O)(NCC(c1ccco1)N1CCOCC1)c1cc(F)ccc1F (stereo not given) | F
Cc1ccc(S(=O)(=O)N(CC(=O)Nc2ccc(Cl)cc2Cl)c2ccccc2C)cc1 | T
Cc1cc(C)c(NC(=O)CSc2nc3ccncc3[nH]2)c(C)c1 | F
Cn1cnnc1Sc1ccc(CN2CCN(C3CCCC3)C(CCO)C2)o1 (stereo not given) | F
Cc1ccc(N=Cc2c(O)cc(C)oc2=O)c(C)c1 | F
COc1cc(C(=O)NN(CCC#N)C2=NS(=O)(=O)c3ccccc32)cc(OC)c1OC | F
O=[N+]([O-])c1ccc(Sc2n[nH]c(-c3ccco3)n2)nc1 | F
O=C(Nc1cccc(C(F)(F)F)c1)c1ccc(N2CCNCC2)c([N+](=O)[O-])c1 | T
Brc1ccc(-c2n(-c3ccccn3)c3ccccc3[n+]2-c2ccccn2)cc1 | T
Cn1c(=O)cc(SCC(=O)N2CCCC2)c2cc(Cl)ccc21 | F
Cc1ccc(-c2nc(CSCC(=O)NC3CCN(Cc4ccccc4)CC3)c(C)o2)cc1 | T
CCn1cc(/C=C(\NC(=O)c2ccc(C)cc2)C(=O)NCCN2CCOCC2)c2ccccc21 | F
Oc1ccc(N=Cc2sc3ccccc3c2Cl)cc1 | T
O=C1CCC[C@@H]2C[C@@]3(C[C@@H]4CCN1[C@H]24)Nc1ccccc1NC3=NCc1ccccc1 | F
Cc1ccc(N/C(N)=N/c2nc(C(F)(F)F)cc(C(F)(F)F)n2)cc1 | F
CC(C)N1C(=O)C2C(C(=O)NC3CCCCC3)C3C=CC2(O3)C1C(=O)NC1CCCC1 (stereo not given) | F
C[N+](C)(C)CCOP(=O)([O-])OC[C@H](O)CO | F
O=C(COc1ccccc1F)NNC(=O)c1ccc(N2CCCCC2)c([N+](=O)[O-])c1 | F
NC(=O)C1CCN(CC(O)CSc2ccc(F)cc2)CC1 (stereo not given) | F
CC(=O)c1ccc(NC(=O)c2ccc(-n3cncn3)c([N+](=O)[O-])c2)cc1 | F
COc1ccccc1CNC(=O)CS(=O)(=O)c1cccc2nsnc12 | F
CC(=O)c1ccc(NC(=O)CSC(=S)N2CCCC2)cc1 | F
CC12C(=O)N(n3cnnc3)C(=O)C1C1C=CC2C1 (stereo not given) | F

----------
experiment: qHTS for Inhibitors of human tyrosyl-DNA phosphodiesterase 1 (TDP1): qHTS in cells in absence of CPT; conditions: DT40 Tdp1-/- hTDP1 cells, no CPT, ATP luminescence, 48 h; note: nearly all actives have a fitted effect of over 55% in size
Out of some 420,000 compounds screened, about 64,000 (15%) were called active. Another 27% or so got no clear call; they are omitted. These entries were drawn from the full list.
Property Name: outcome

Molecule | Measured Value
CCOc1ccc(NC(=O)c2cc(C)nc3ccccc23)cc1 | inactive
COc1cc(C(=O)Nc2cc(C(F)(F)F)ccc2N2CCOCC2)ccc1O | inactive
O=C(Nc1ccccc1N1CCOCC1)c1csc2c1CCCC2 | inactive
COc1cc(OC)cc(-c2nc(=S)n3ccsc3n2)c1 | inactive
Cc1c(Cl)c([N+](=O)[O-])nn1CC(=O)NCC1CCCO1 (stereo unspecified) | inactive
CCC1CN(CCNC(=O)c2cccc(C)n2)Cc2cc(OC)ccc2O1 (stereo unspecified) | inactive

----------
assay: qHTS for Inhibitors of human tyrosyl-DNA phosphodiesterase 1 (TDP1): qHTS in cells in absence of CPT; details: DT40 Tdp1-/- hTDP1 cells, no CPT, ATP luminescence, 48 h; note: nearly all actives have a fitted effect of over 55% in size
The whole screen tested about 420,000 compounds, of which about 64,000 (15%) were called active. Another 27% or so got no clear call; they are omitted. Calls come from the whole dose curve; as a rule, active = well fitted inhibition curve with a large enough effect; inconclusive = small, poorly fitted or top-dose-only effect; inactive = flat fitted curve, though single readings scatter. Only a sample is shown.
Outcomes: active, inactive

Molecule | Label Class
Cc1ccc(-c2nc(-c3cccnc3)sc2CC(=O)Nc2ccc(C)c(Cl)c2)cc1 | active
O=C(NCc1csc(-c2cccs2)n1)C1CC1 | inactive
Cc1ccc2nc(Nc3ccccc3)cc(C)c2c1 | active
CN(CCOc1ccccc1)C(=O)c1cc(COc2c(F)cccc2F)on1 | inactive
CN1CCN(C(=O)N2c3ccccc3CCc3ccccc32)CC1 | inactive
Cc1ccc(CCn2c3c(c4ccccc42)CN(C)CC3)cn1 | inactive
CCc1ccccc1N(C)C(=O)C1CCCN(c2ncnc3onc(-c4ccc(F)cc4)c23)C1 (stereo not given) | active
CN(C)C(=O)[C@@H]1C[C@@H](Sc2nc3ccccc3[nH]2)CN1Cc1ccc(Cl)cc1 | inactive
Cc1nn(-c2ccccc2)c(Cl)c1/C=C/C(=O)c1ccc(O)cc1 | active
Cc1nn(CC(=O)Nc2ccc(C#N)cc2)c(C)c1[N+](=O)[O-] | inactive
COc1ccc(Cl)cc1NC(=O)CSc1nc(=O)[nH]c2c1CCCC2 | inactive
Cc1nn(-c2ccccc2)c(Cl)c1C(=O)Nc1ccccc1 | inactive
CCn1c(C(C)C)n[nH]c1=S | inactive
O=C(O)c1ccc2c(c1)C(=O)N(c1ccc(/C=C/C(=O)c3ccccc3)cc1)C2=O | inactive
Cc1ccc(NC(=O)Nc2cccnc2)cc1 | inactive
Cc1nn(-c2ccccc2)c(C)c1/C=C/C(=O)OC(C)C(N)=O (stereo not given) | inactive
O=C(O)c1cc([N+](=O)[O-])c(Nc2cccc3ccccc23)c([N+](=O)[O-])c1 | inactive
CCOC(=O)COc1nc(C)cc(C(F)(F)F)c1C#N | inactive
COc1ccccc1N1CCN(c2ncnc3sc(C)c(-c4ccccc4)c23)CC1 | inactive
CC(=O)Nc1ccc(NC(=O)C(C)OC(=O)C2CC(=O)N(CCc3ccccc3)C2)cc1 (stereo not given) | inactive
O=C1CSC(=O)N1CCOCCN1C(=O)CSC1=O | inactive
COc1ccc(C(=O)NNS(=O)(=O)c2ccc(C)cc2)cc1 | inactive
CC(C)CC1(C)NC(=O)N(CC(=O)Nc2ccc3c(c2)OCCO3)C1=O (stereo not given) | inactive
COc1ccc(C(CNC(=O)CSc2ccccc2)N2CCOCC2)cc1 (stereo not given) | inactive
CCCCNCCS(=O)(=O)NCc1ccccc1 | inactive
CN(Cc1ccccc1)c1ncnc2onc(-c3ccc(F)cc3)c12 | active
CCOc1ccc(NS(=O)(=O)c2ccc(N)cc2)nn1 | inactive
CN(C)CCCN1C(=O)CSC1c1ccc([N+](=O)[O-])cc1 (stereo not given) | inactive
O=C(CNC(=O)Cc1ccccc1)NCC(=O)OCC(=O)c1ccccc1Cl | inactive
Nc1nc(SCC(=O)Nc2cc(C(F)(F)F)ccc2Cl)[nH]c(=O)c1NC(=O)c1ccco1 | inactive
CN(Cc1cccnc1)C(=O)c1cc(COc2ccc3ncccc3c2)on1 | active
c1ccc(CN=C2Nc3ccccc3CS2)nc1 | inactive
Cc1ccc(OCc2cc(C(=O)N(C)CCc3ccccc3)no2)cc1C | inactive
Cc1nn(-c2ccccc2)c(CC(C)(C)C(=O)O)c1C(=O)O | inactive
CN(Cc1ccccc1)c1ccc(-c2nc(-c3ccccc3)no2)cc1[N+](=O)[O-] | inactive
COc1ccccc1N1CCN(c2ncnc3onc(-c4cccc(Cl)c4)c23)CC1 | inactive
CN1CCN(c2ccc(NC(=O)c3ccccc3)cc2)CC1 | inactive
O=c1[nH]cnc(O)c1C(c1ccc(F)cc1)c1c(O)nc[nH]c1=O | inactive
Cc1cc(Nc2ccccc2)nc(N)n1 | inactive
CCN(CC(=O)Nc1ccc(NC(C)=O)cc1)C(=O)C1CC(=O)N(Cc2ccc(C)cc2)C1 (stereo not given) | inactive
CCN(C(=O)COC(=O)c1c(NC(C)=O)sc(C)c1C)C1CCS(=O)(=O)C1 (stereo not given) | inactive
COc1ccc(C(=O)NN(C)c2nc(-c3ccccc3)cc(C)c2S(C)(=O)=O)cc1 | active
CC(C)n1c(=O)[nH]c2cc(C(=O)Nc3ccccc3)ccc21 | inactive
OC[C@H]1O[C@@H](c2nc(-c3nc(-c4ccc(F)cc4)no3)cs2)[C@H](O)[C@@H](O)[C@H]1O | inactive
Clc1ccc(Nc2ccc3ccccc3n2)cc1 | inactive
